Assay: Determination of Thermodynamic Solubility
Format: physicochemical
Conditions: phosphate buffer, 25 °C, pH 7.4, aqueous buffer, thermodynamic from solid, 50 mM phosphate pH 7.4 buffer, 25° C., read-out: Solubility pH 7.4
MEASURED_METRIC: solubility (µg/mL)

[[record]]
structure_smiles_string = "CCN(CC)CCCNC(=O)c1cnc(N)c2c(-c3ccc(NC(=O)Nc4cccc(F)c4)cc3)csc12"
measured_metric = "solubility"
recorded_measurement = 17.1


###

Assay: Determination of Thermodynamic Solubility
Format: physicochemical
Conditions: PEG 300, 25 °C, organic solvent or mixture, thermodynamic from solid, PEG 300, Example 2 at 25° C., Example 1 at ambient temperature, read-out: Solubility (PEG300)
MEASURED_METRIC: solubility

[[record]]
compound = "CNC(=O)c1cnc(N)c2c(-c3ccc(NC(=O)Nc4cccc(C)c4)cc3)csc12 [Example 2]"
recorded_measurement = "8.4 mg/mL"

[[record]]
compound = "CCN(CC)CCCNC(=O)c1cnc(N)c2c(-c3ccc(NC(=O)Nc4cccc(F)c4)cc3)csc12 [Example 1]"
recorded_measurement = "132 mg/mL"


###

Molecular target: FLT1 (Homo sapiens, UniProt P17948)
Sequence (P17948 786-1338 limits assumed): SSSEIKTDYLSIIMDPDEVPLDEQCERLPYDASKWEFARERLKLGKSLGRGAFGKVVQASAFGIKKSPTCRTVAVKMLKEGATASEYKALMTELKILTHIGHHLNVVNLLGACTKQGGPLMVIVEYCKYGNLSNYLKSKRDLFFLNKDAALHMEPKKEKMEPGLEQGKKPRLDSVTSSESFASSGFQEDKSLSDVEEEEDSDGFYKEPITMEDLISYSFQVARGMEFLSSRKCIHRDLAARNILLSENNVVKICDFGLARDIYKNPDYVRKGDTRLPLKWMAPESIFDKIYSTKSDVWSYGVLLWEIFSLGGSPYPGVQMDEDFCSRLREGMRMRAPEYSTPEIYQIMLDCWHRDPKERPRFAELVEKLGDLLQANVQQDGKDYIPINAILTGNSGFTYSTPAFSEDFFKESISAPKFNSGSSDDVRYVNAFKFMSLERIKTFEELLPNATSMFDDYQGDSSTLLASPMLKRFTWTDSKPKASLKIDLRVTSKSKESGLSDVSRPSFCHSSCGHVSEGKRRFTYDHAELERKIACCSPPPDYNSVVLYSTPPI
pIC50: −log10 of the molar value.
MEASURED_METRIC: pIC50

[[record]]
molecule = "CNC(=O)c1cnc(N)c2c(-c3ccc(NC(=O)Nc4cccc(C)c4)cc3)csc12 [Example 2]"
measured_metric = "pIC50"
recorded_measurement = 8.70


###

Protein target, amino acids: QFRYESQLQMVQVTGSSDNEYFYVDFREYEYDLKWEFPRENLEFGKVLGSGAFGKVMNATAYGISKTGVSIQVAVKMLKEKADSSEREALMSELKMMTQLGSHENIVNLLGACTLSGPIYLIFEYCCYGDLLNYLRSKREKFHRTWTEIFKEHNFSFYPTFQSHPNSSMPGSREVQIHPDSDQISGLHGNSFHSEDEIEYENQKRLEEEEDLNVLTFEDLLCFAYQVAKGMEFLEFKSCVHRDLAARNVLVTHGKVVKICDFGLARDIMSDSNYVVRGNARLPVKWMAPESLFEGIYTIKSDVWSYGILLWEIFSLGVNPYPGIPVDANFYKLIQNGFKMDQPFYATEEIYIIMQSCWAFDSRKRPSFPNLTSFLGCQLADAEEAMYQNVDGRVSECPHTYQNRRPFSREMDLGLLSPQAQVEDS
MEASURED_METRIC: IC50 (nM)

[[record]]
structure_smiles_string = "CNC(=O)c1cnc(N)c2c(-c3ccc(NC(=O)Nc4cccc(C)c4)cc3)csc12"
uom = "nM"
recorded_measurement = 2


Value source: patent US20130023555A1
